All values here come from patent US8715959B2.

- Tested on: CfEcR-DEF
- Procedure text: GAL4/mutant CfEcR-DEF + VP16/LmUSP-EF GAL4-driven luciferase reporter transactivation in NIH3T3 cells
- Assay type: cell-based, Choristoneura fumiferana
- Assay context: 10 nM GS™-E non-steroidal ligand; NIH3T3 cells; relative to Gal4/wild-type CfEcR-DEF switch activity
Fold increase over WT, 10 nM GS™-E of 20 fold or higher: 1. Under 20 fold: 0.

Molecule	Category
V96T/V107I/R175E: CfEcR-DEF LBD triple mutant, V96T, V107I and R175E (protein, listed as Choristoneura fumiferana) LTANQQFLIARLIWYQDGYEQPSDEDLKRITQTWQQADDENEESDTPFRQITEMTILTVQLIVEFAKGLPGFAKISQPDQITLLKACSSEVMMLRTARRYDAASDSILFANNQAYTRDNYRKAGMAYVIEDLLHFCRCMYSMALDNIHYALLTAVVIFSDRPGLEQPQLVEEIQEYYLNTLRIYILNQLSGSARSSVIYGKILSILSELRTLGMQNSNMCISLKLKNRKLPPFLEEIWDV	0
R175E: CfEcR-DEF LBD substitution mutant, Arginine (R) to Glutamine (E) (protein, listed as Choristoneura fumiferana) LTANQQFLIARLIWYQDGYEQPSDEDLKRITQTWQQADDENEESDTPFRQITEMTILTVQLIVEFAKGLPGFAKISQPDQITLLKACSSEVMMLRVARRYDAASDSVLFANNQAYTRDNYRKAGMAYVIEDLLHFCRCMYSMALDNIHYALLTAVVIFSDRPGLEQPQLVEEIQEYYLNTLRIYILNQLSGSARSSVIYGKILSILSELRTLGMQNSNMCISLKLKNRKLPPFLEEIWDV	1
V107I/Y127E: CfEcR-DEF LBD double mutant, Valine (V) to Isoleucine (I) and Tyrosine (Y) to Glutamine (E) (protein, listed as Choristoneura fumiferana) LTANQQFLIARLIWYQDGYEQPSDEDLKRITQTWQQADDENEESDTPFRQITEMTILTVQLIVEFAKGLPGFAKISQPDQITLLKACSSEVMMLRVARRYDAASDSILFANNQAYTRDNYRKAGMAEVIEDLLHFCRCMYSMALDNIHYALLTAVVIFSDRPGLEQPQLVEEIQRYYLNTLRIYILNQLSGSARSSVIYGKILSILSELRTLGMQNSNMCISLKLKNRKLPPFLEEIWDV	1
Y127E/R175E: CfEcR-DEF LBD double mutant, Y127E and R175E (protein, listed as Choristoneura fumiferana) LTANQQFLIARLIWYQDGYEQPSDEDLKRITQTWQQADDENEESDTPFRQITEMTILTVQLIVEFAKGLPGFAKISQPDQITLLKACSSEVMMLRVARRYDAASDSVLFANNQAYTRDNYRKAGMAEVIEDLLHFCRCMYSMALDNIHYALLTAVVIFSDRPGLEQPQLVEEIQEYYLNTLRIYILNQLSGSARSSVIYGKILSILSELRTLGMQNSNMCISLKLKNRKLPPFLEEIWDV	1
V96A/V107I/R175E: CfEcR-DEF LBD triple mutant, V96A, V107I and R175E (protein, listed as Choristoneura fumiferana) LTANQQFLIARLIWYQDGYEQPSDEDLKRITQTWQQADDENEESDTPFRQITEMTILTVQLIVEFAKGLPGFAKISQPDQITLLKACSSEVMMLRAARRYDAASDSILFANNQAYTRDNYRKAGMAYVIEDLLHFCRCMYSMALDNIHYALLTAVVIFSDRPGLEQPQLVEEIQEYYLNTLRIYILNQLSGSARSSVIYGKILSILSELRTLGMQNSNMCISLKLKNRKLPPFLEEIWDV	1
V107I: CfEcR-DEF LBD substitution mutant, Valine (V) to Isoleucine (protein, listed as Choristoneura fumiferana) LTANQQFLIARLIWYQDGYEQPSDEDLKRITQTWQQADDENEESDTPFRQITEMTILTVQLIVEFAKGLPGFAKISQPDQITLLKACSSEVMMLRVARRYDAASDSILFANNQAYTRDNYRKAGMAYVIEDLLHFCRCMYSMALDNIHYALLTAVVIFSDRPGLEQPQLVEEIQRYYLNTLRIYILNQLSGSARSSVIYGKILSILSELRTLGMQNSNMCISLKLKNRKLPPFLEEIWDV	0
